Taken from ChEMBL document CHEMBL5137073.

Sequence of the target: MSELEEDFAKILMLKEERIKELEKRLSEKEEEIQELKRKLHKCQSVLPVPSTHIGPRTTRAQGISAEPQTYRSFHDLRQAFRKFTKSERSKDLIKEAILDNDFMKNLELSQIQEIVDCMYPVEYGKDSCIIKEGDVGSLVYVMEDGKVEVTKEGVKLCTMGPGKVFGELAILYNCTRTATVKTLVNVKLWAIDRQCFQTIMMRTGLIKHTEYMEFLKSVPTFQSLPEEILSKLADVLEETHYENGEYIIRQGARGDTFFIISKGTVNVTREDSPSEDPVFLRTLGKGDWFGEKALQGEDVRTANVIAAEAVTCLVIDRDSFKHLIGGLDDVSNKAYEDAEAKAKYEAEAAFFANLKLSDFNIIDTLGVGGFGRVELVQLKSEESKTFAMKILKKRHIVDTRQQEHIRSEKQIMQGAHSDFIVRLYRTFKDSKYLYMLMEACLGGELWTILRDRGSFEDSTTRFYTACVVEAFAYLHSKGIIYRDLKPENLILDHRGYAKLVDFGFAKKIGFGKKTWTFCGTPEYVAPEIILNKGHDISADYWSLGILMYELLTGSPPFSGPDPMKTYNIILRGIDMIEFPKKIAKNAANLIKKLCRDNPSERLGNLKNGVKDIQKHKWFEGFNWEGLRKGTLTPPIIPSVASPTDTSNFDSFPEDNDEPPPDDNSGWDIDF
pEC50: −log10 of the molar value.
readout.type: pEC50

Ask: Suppose we examine the compound `OC[C@@H](O[C@H]1CCCN(Cc2ncc[nH]2)[C@H]1c1ccccc1)c1cc(Cl)cc(Cl)c1` ; what pEC50 value has been reported?
Reply: < 3.79
